Reference source for all entries: PubChem BioAssay

experimental-target: Follistatin (Homo sapiens) (UniProt P19883)
Sequence (P19883 whole entry, looked up): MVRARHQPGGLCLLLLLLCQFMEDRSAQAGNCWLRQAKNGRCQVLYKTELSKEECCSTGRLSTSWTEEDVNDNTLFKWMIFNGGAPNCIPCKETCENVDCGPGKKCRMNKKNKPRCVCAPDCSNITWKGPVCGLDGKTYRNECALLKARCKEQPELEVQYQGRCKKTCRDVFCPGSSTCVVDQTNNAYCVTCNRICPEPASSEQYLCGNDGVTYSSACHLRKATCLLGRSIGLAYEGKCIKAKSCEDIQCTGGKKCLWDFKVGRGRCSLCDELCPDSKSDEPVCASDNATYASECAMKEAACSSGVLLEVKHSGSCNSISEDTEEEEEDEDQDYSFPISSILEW
experiment-summary: FST protein binding to printed compounds – biochemical, small-molecule microarray, 635/667 nm fluorescence, primary screen (AID 1132)
condition-description: 635 nm fluorescence, higher = more signal
Short version: composite z-score at least -0.08 is 1.0, less is 0.0.

# example entries with known answers
[
  {
    "compound": "CC(C)C(O)C1C=CC2C(=O)N(c3ccccc3)C(=O)C2N1Nc1ccccc1 (configuration not stated)",
    "answer-label": 1.0
  },
  {
    "compound": "COc1cccc(C)c1NC(=O)O[C@H]1[C@H](OC(=O)Nc2ccccc2-c2ccccc2)[C@H](OC(=O)Nc2ccccc2-c2ccccc2)[C@@H](OC)O[C@@H]1CO",
    "answer-label": 1.0
  },
  {
    "compound": "[N-]=[N+]=Nc1ccccc1[C@@H]1OC(c2ccc(OCCCO)cc2)=N[C@]1(Cc1ccccc1)C(=O)O",
    "answer-label": 1.0
  },
  {
    "compound": "COc1cc2c(cc1O)C(C1CC1)N(C)CC2 (configuration not stated)",
    "answer-label": 0.0
  },
  {
    "compound": "CCOC(=O)C1=CC[C@@H](c2ccccc2)N(S(=O)(=O)c2ccc(C)cc2)[C@H]1c1ccccc1",
    "answer-label": 0.0
  },
  {
    "compound": "CCCCC(CC)C(O)C1C=CC2C(=O)N(c3ccccc3)C(=O)C2N1Nc1ccccc1F (configuration not stated)",
    "answer-label": 1.0
  }
]

Now, please, on to the next compound.
Ask: I'd appreciate it if you could say whether CC(CO)N1C(=O)[C@]2(C)C3C(=O)OCCC/C=C\[C@H]3OC23C=CCN(c2ccc(Cl)cc2)C(=O)[C@@H]13 (some centres not stated) has composite z-score at least equal to -0.08.
Result: 0.0

---

experimental-target: Streptavidin (Streptomyces avidinii) (UniProt P22629)
Sequence (P22629 whole entry, looked up): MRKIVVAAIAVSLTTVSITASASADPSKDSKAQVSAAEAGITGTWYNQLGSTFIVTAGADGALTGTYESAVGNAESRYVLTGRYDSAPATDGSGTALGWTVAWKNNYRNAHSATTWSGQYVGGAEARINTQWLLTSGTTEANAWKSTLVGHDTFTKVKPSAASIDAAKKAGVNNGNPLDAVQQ
experiment-summary: compounds binding control protein streptavidin – biophysical, small-molecule microarray, 635/667 nm fluorescence, artefact control for SMM compound annotation, primary screen (AID 1147);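 also: signal reflects streptavidin binding to arrayed compounds as a control protein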
condition-description: higher = more signal
Documented composite z-score across a set of compounds

# annotated cases, reported composite z-score shown
[
  {
    "compound": "CC(C)c1ccc(NN2C(C(O)c3ccc(F)cc3)C=CC3C(=O)N(c4ccccc4)C(=O)C32)cc1 (stereo not given)",
    "composite z-score": 1.7
  },
  {
    "compound": "CCCCCC1=C2CNC(C)(C(=O)OC)C=C2C(C)C1=O (stereo not given)",
    "composite z-score": -0.162
  }
]

Ask: Reported composite z-score for `C=CCNC(=O)[C@@H]1[C@H]2C(=O)O[C@H](c3ccccc3)[C@H](c3ccccc3)N2[C@H](c2ccccc2OCCO)[C@@]12C(=O)Nc1ccc(C#CCC(C(=O)OC)C(=O)OC)cc12` : what is it?
Result: 0.0625

Ask: Reported composite z-score for CC(CO)N1C(=O)[C@@H]2[C@H]3C(=O)OCC=C[C@H]3OC23C=CCN(Cn2nnc4ccccc42)C(=O)[C@@H]13 (stereo not given in full) : what is it?
Result: -0.78

Ask: Reported composite z-score for `C=CCNC(=O)[C@@H]1[C@H]2C(=O)O[C@H](c3ccccc3)[C@H](c3ccccc3)N2[C@H](c2ccccc2OCCO)[C@@]12C(=O)Nc1ccc(C#CCCO)cc12` : what is it?
Result: -0.158
